Biological target: His-TEV-DYRK1A Kinase domain (aa127-485) (Homo sapiens, UniProt Q13627)
Construct: His-TEV-DYRK1A Kinase domain (aa127-485); His (N); TEV cleavage site (N)
Assay: Kinase ADP assay (ADP Hunter Plus)
Format: biochemical
readoutLabel: IC50 (µM)
Dear colleague, please return just the value in µM, with no unit written.

INPUT: Would you kindly share the measured IC50 for Cc1nc(NCc2ccccc2F)c2c(-c3ccnc(N)c3)c[nH]c2n1 ?
OUTPUT: 0.013

INPUT: And then Cc1nc(OCCC2CC2)c2c(-c3ccncc3)c[nH]c2n1 , what is it?
OUTPUT: 0.038

INPUT: And then COc1ccccc1CNc1nc(C)nc2[nH]cc(-c3ccnc(N)c3)c12 , what is it?
OUTPUT: 0.009

INPUT: And then Cc1nc(N[C@@H]2CCCc3ccccc32)c2c(-c3ccnc(N)c3)c[nH]c2n1 , what is it?
OUTPUT: 0.038

INPUT: And then Nc1cc(-c2c[nH]c3nc(C#CC4CC4)cc(-c4ccc5c(c4)OCO5)c23)ccn1 , what is it?
OUTPUT: 0.019

INPUT: And then Cc1nc(N2CCc3nccnc3C2)c2c(-c3ccnc(N)c3)c[nH]c2n1 , what is it?
OUTPUT: 0.169

INPUT: And then Cc1nc(N[C@@H]2CCc3ccccc32)c2c(-c3cc(N)nc(N)c3)c[nH]c2n1 , what is it?
OUTPUT: 0.011

INPUT: And then Cc1nc(C#Cc2ccccc2F)c2c(-c3ccnc(N)c3)c[nH]c2n1 , what is it?
OUTPUT: 0.007

Values were extracted from patent US20180273538A1.
